RECORDED_METRIC: melting point

- MOLECULE: "CCCCc1oc2ccccc2c1-c1ncc(-c2ccc3cc(OC(Cc4ccccc4)C(=O)O)ccc3c2)o1 (stereo not drawn) [Example 3]"
  RECORDED_METRIC: "melting point"
  MEAS_VALUE: "174 to 177 °C"
- MOLECULE: "c1ccc(Cn2cc(-c3ncc(-c4ccc5cc(OCc6nnn[nH]6)ccc5c4)o3)c3ccccc32)cc1 [Example 7]"
  RECORDED_METRIC: "melting point"
  MEAS_VALUE: "244 to 246 °C"

For c1ccc2cc(Cc3ncc(-c4ccc5cc(OCc6nnn[nH]6)ccc5c4)o3)ccc2c1 [Example 15] , what is its reported melting point? 179 to 182 °C

The reported numbers originate from patent US7754747B2.
